Target: KSP motor domain (Homo sapiens)
Experiment: biochemical
Details: KSP inhibitory activity, end-point assay; class symbols (Table 1); read-out: IC50
Parameter: IC50. Scope: all listed entries.

{"columns": ["Compound", "Tested on", "IC50"],
 "data": [
  ["CC(C)(C)C1CCc2nc3sc(C(=O)N[C@H](CN)c4cccc(-c5cccc6cccnc56)c4)cc3cc2C1 (stereo partly shown)", "KSP motor domain (Homo sapiens)", "0.1 to 1 µM"],
  ["CC(C)(C)C1CCc2nc3sc(C(=O)NCCN)c(N)c3cc2C1 (stereo not shown)", "KSP motor domain (Homo sapiens)", "1 to 10 µM"],
  ["CCC(C)(C)C1CCc2c(cc3cc(C#N)sc3[n+]2[O-])C1 (stereo not shown)", "KSP motor domain (Homo sapiens)", "1 to 10 µM"],
  ["CC(C)(C)C1CCc2nc3sc(C(=O)N[C@H](CN)c4cccc(Br)c4)cc3cc2C1 (stereo partly shown)", "KSP motor domain (Homo sapiens)", "0.1 to 1 µM"]
]}

====

Biological target: KSP motor domain (Homo sapiens, UniProt P52732)
Sequence (P52732 18-359 limits assumed): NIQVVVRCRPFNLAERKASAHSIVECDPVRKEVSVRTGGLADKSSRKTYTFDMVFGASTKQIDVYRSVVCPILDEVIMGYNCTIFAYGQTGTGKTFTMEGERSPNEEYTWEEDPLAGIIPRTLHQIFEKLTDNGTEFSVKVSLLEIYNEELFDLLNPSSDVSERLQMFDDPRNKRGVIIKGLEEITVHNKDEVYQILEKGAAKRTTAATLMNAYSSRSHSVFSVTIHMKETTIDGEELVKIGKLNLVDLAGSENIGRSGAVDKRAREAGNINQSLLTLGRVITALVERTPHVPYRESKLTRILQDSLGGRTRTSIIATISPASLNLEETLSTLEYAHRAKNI
Test: biochemical
Conditions: KSP inhibitory activity, end-point assay; class symbols (Table 1); read-out: IC50
Parameter: IC50. Scope: all listed entries.
Measurement kind: IC50

{"columns": ["Compound", "Tested on", "Readout value"],
 "data": [
  ["CCC1CCc2nc3sc(C#N)c(N)c3cc2C1 (centres unmarked)", "KSP motor domain (Homo sapiens, UniProt P52732)", "1 to 10 µM"],
  ["CC(C)C1CCc2nc3sc(C#N)c(N)c3cc2C1 (centres unmarked)", "KSP motor domain (Homo sapiens, UniProt P52732)", "1 to 10 µM"],
  ["CC(C)(C)C1CCc2nc3sc(C(=O)NCCN4CCNCC4)cc3cc2C1 (centres unmarked)", "KSP motor domain (Homo sapiens, UniProt P52732)", "0.1 to 1 µM"],
  ["CC(C)(C)C1CCc2nc3sc(C(N)=O)nc3cc2C1 (centres unmarked)", "KSP motor domain (Homo sapiens, UniProt P52732)", "0.1 to 1 µM"],
  ["CC(C)CC(C)(C)C1CCc2nc3sc(C#N)c(N)c3cc2C1 (centres unmarked)", "KSP motor domain (Homo sapiens, UniProt P52732)", "> 10 µM"],
  ["Cn1nccc1C(=O)Nc1cccc([C@@H](CNCCO)NC(=O)c2cc3cc4c(nc3s2)CC[C@@H](C(C)(C)C)C4)c1", "KSP motor domain (Homo sapiens, UniProt P52732)", "0.1 to 1 µM"],
  ["CC(C)(C)[C@@H]1CCc2nc3sc(C(=O)N[C@H](CN)c4ccc(NC(=O)c5cnccn5)cc4)cc3cc2C1", "KSP motor domain (Homo sapiens, UniProt P52732)", "< 0.1 µM"],
  ["CC(C)(C)C1CCc2nc3sc(C(=O)NCCCO)cc3cc2C1 (centres unmarked)", "KSP motor domain (Homo sapiens, UniProt P52732)", "0.1 to 1 µM"]
]}

====

Molecular target: KSP motor domain (Homo sapiens, UniProt P52732)
Assay: biochemical
Settings: KSP inhibitory activity, end-point assay; class symbols (Table 1); read-out: IC50

{"columns": ["Compound", "IC50"],
 "data": [
  ["C[C@@H](CN)NC(=O)c1cc2cc3c(nc2s1)CCC(C(C)(C)C)C3 (stereo partly drawn)", "< 100 nM"],
  ["CCC(C(C)C)C1CCc2nc3sc(C#N)c(N)c3cc2C1 (stereo not drawn)", "100 to 1000 nM"],
  ["N#Cc1sc2nc3c(cc2c1N)CN(Cc1ccccc1)CC3", "> 10000 nM"]
]}
